Test system: HCT-15 colon
Experiment: NCI tumour cell line growth inhibition, 48 h
Measured TGI by item

Worked cases, answers included:
Request: Reported TGI for COc1cc(C(CC(OC)OC)=C(C#N)C#N)cc(OC)c1OC : what is it?
Response: > 100 µM

Request: Quick one: TGI for COc1ccc(-c2[nH]ncc2-c2cc(OC)c(OC)c(OC)c2)cc1 ?
Response: > 80.6 µM

Continuing:
Request: Fill in: TGI of Cc1nc(N)nc(N)c1N1CCN(Cc2ccccc2)CC1 is ___
Response: > 100 µM

Request: Fill in: TGI of O=[N+]([O-])c1cc(Cl)ccc1S(=O)(=O)c1cc(Cl)cc2c1NCCC2 is ___
Response: > 100 µM

Request: Request the reported TGI associated with CCC(C)CC(CC)NCCN1CCN(C(CC)CC(C)CC)C1=S (stereo unspecified)
Response: 3.4 µM

Request: So what's the measured TGI for this one? CCOC(=O)C12C(=O)CCN1CCc1ccccc1C2C (stereo unspecified)
Response: > 100 µM

Request: // TGI lookup, key: COc1ccc(N2C(=O)C3c4[nH]c5ccccc5c4C4CCC(C(C)(C)C)CC4C3C2=O)cc1OC (stereo unspecified)
Response: > 100 µM

Request: What TGI value was documented for this compound, O=[N+]([O-])c1ccc(Cl)cc1N/N=C/c1cccs1 ?
Response: > 100 µM

Request: # TGI lookup, item c1csc(-c2nnc(C34CC5CC(CC(C5)C3)C4)o2)c1
Response: > 100 µM

Request: Given the entry COc1ccc(Nc2c[nH]c(=O)[nH]c2=O)cc1 , report its measured TGI.
Response: > 100 µM

Request: What value of measured TGI is listed for CCCCc1nc2cc(/C=C/C(=O)NO)ccc2n1CCN(CC)CC ?
Response: 22.4 µM

---

Test system: RPMI-8226 leukemia
Experiment: NCI tumour cell line growth inhibition, 48 h
PARAMETER_MEASURED: TGI

Request: Could you tell me which TGI is on file for C=CCc1cccc2cc(C(=O)Nc3nc(C45CC6CC(CC(C6)C4)C5)cs3)c(=O)oc12 ?
Response: > 100 µM

***
Request: Please give the measured TGI for this compound: COc1ccc(S(=O)(=O)N/N=C(\C)CN2C(=O)c3ccccc3C2=O)cc1
Response: > 100 µM

Request: Name the recorded TGI for Cc1[nH]c(=O)[nH]c(=O)c1C(=O)N(CCO)Cc1ccccc1 .
Response: > 100 µM

Request: Would you mind telling me what TGI value was observed for CCC(C)CC(CC)NCCN1CCN(C(CC)CC(C)CC)C1=S (configuration not stated) ?
Response: 4.25 µM

---

Test system: A498 renal
Assay: NCI tumour cell line growth inhibition, 48 h
PARAMETER_MEASURED: TGI

Request: Fill in: TGI of CCCC1C(C#N)(C#N)C(C#N)=C(N)C1(C)C(C)=O (stereo not given) is ___
Response: > 100 µM

More entries:
Request: Recorded TGI for O=C1CC(c2c[nH]c3ccccc23)C(=O)N1c1ccccc1 (stereo not given) , please?
Response: > 100 µM

Request: What TGI value was documented for this molecule, CCCCCCCCCC(=O)N[C@H]1CCc2cc(OC)c(OC)c(OC)c2-c2ccc(SC)c(=O)cc21 ?
Response: 0.0596 µM

Request: For the molecule COc1cccc2c1C(=O)c1c(O)c3c(c(O)c1C2=O)C[C@@](O)(/C(C)=N\O)C[C@@H]3OC1CC(N)C(O)C(C)O1 (stereo not given in full) , what TGI is on record?
Response: 3.31 µM

Request: Entry under review: Cc1nc2ccccc2cc1C[N+]12CN3CN(CN(C3)C1)C2 . Reported TGI?
Response: 47.8 µM

---

Tested on: KM12 colon
Assay: NCI tumour cell line growth inhibition, 48 h
Peptide text beside a SMILES is read from it. * marks the point of attachment. OSu = O=C1CCC(=O)N1O*; OBn = c1ccc(CO*)cc1; Bn = c1ccc(C*)cc1
Listed here are molecules together with their documented TGI.

Request: Form entry - test system: KM12 colon; read-out: TGI; molecule: CC(C)(C)n1cc(-c2ccnc(NCCNS(=O)(=O)c3cccc4ccccc34)c2)c(-c2cccc(F)c2)n1
Response: 55.8 µM

Request: Give the reported TGI for NC(CNc1ccc(O)cc1)C(=O)O (centres undefined) (system: KM12 colon).
Response: > 100 µM

Request: Requested read-out TGI, target or system KM12 colon, entry CCCCC#Cc1cccc(=O)o1
Response: > 100 µM

Next:
Request: KM12 colon / TGI / COC1CCC(n2c([C@@H]3CCCC(=O)N3c3ccc(F)c(F)c3)nc3cc(-c4c(C)noc4C)ccc32)CC1 (some centres undefined) : value?
Response: 30.4 µM

Request: Give TGI (KM12 colon) of the following molecule: CC(C)[C@@H](CS(=O)(=O)C(C)C)N1C(=O)[C@@](C)(CC(=O)O)C[C@H](c2cccc(Cl)c2)[C@H]1c1ccc(Cl)cc1
Response: > 51.6 µM

Request: What reported TGI corresponds to Clc1ccc(-c2cn(-c3ccccc3)c(-c3ccccc3)n2)c(Cl)c1 on KM12 colon?
Response: 2.02 µM

Request: Test system KM12 colon; read-out TGI; what value for CC(C)CC(NC(=O)C(N)CCC(=O)OCc1ccccc1)C(=O)NC(COCc1ccccc1)C(=O)NC(Cc1ccccc1)C(=O)ON1C(=O)CCC1=O (centres undefined) (H-E(OBn)LS(Bn)F-OSu; configuration not given here) ?
Response: > 100 µM

Request: Field: TGI (KM12 colon). Entry: CC1=N/C(=C\c2cccc3ccccc23)C(=O)O1
Response: > 100 µM

Request: Write down the reported TGI of C=CCc1cccc2cc(C(=O)Nc3nc(C45CC6CC(CC(C6)C4)C5)cs3)c(=O)oc12 , test system: KM12 colon.
Response: > 100 µM

---

System: MDA-MB-231 breast
Experiment: NCI tumour cell line growth inhibition, 48 h
compounds and their reported TGI

Request: Value wanted: TGI (MDA-MB-231 breast) of entry C#CC#CC#CC#CC#CC#CC#CC#CCC1OC[C@H](COC(=O)O[C@@H](C(=O)O[C@H]2C[C@@]3(O)[C@@H](OC(=O)c4ccccc4)[C@@H]4[C@]5(OC(C)=O)CO[C@@H]5C[C@H](O)[C@@]4(C)C(=O)[C@H](OC(C)=O)C(=C2C)C3(C)C)[C@@H](NC(=O)c2ccccc2)c2ccccc2)O1 (stereo partly drawn)
Response: > 33.3 µM

Request: Test system MDA-MB-231 breast; read-out TGI; what value for CCOC(=O)O/N=C1/C(c2c(O)[nH]c3ccccc23)=Nc2ccccc21 ?
Response: 63 µM

Request: Please provide the recorded TGI for COc1cc(-c2coc3c(OC)c(OC4OC(COC5OC(C)C(O)C(O)C5O)C(O)C(O)C4O)c(OC)c(O)c3c2=O)cc(C)c1O (stereo not drawn) , tested on MDA-MB-231 breast.
Response: > 100 µM

---

System: NCI/ADR-RES ovarian
Experiment: NCI tumour cell line growth inhibition, 48 h
Catalogue of TGI readings, one per entry.

Request: What does the record list as TGI for O=C1/C(=C2\SCC(=O)N2c2ccccc2)SC(=S)N1c1ccccc1 ?
Response: 90.7 µM

---
Request: Entry under review: CS(=O)(=O)CS(=O)CS(=O)CS(=O)CC(NC(=O)CCC(N)C(=O)O)C(=O)O (stereo not given) . Reported TGI?
Response: > 100 µM

Request: Need TGI of COc1ccc(C(=O)N/N=C/c2ccc(O)cc2O)cc1Nc1ccnc(C(F)(F)F)c1 , thanks.
Response: > 100 µM

Request: What TGI value was documented for this compound, COC1=CCC2=C(CCN(C(=O)C3CCC3)C2Cc2ccc(OC)c(O)c2)C1 (stereo not given) ?
Response: 41.4 µM

Request: Entry CCN1CCCCC(=N\O)/C(=N/O)CCCC1 : reported TGI = ?
Response: > 100 µM

---

Test system: SF-295 CNS
Test: NCI tumour cell line growth inhibition, 48 h; in the data active means GI50 below about 0.43 µM; inactive means the rest
Assign a class; possible classes are t for active, f for inactive

Request: // param item: Oc1ccc(-c2nc3ccc4[nH]ncc4c3c3c2CCCC3)c2cccnc12 ; yields the recorded call
Response: t

Continuing:
Request: For this compound, state the assay outcome: COC(=O)c1cc2c(cc1Cl)SC(N(N(C)C)S(=O)(=O)c1ccc(Cl)cc1)=NS2(=O)=O
Response: f

Request: Hi, sorry to bother you, what did the test record for CC1(C)CC[C@]2(C(=O)O)CC[C@]3(C)[C@H](CC[C@@H]4[C@@]5(C)CCC(=O)C(C)(C)[C@@H]5CC[C@]43C)[C@H]2[C@H]1OC(=O)C(F)(F)F ?
Response: f

Request: Outcome? Clc1ccc(Nc2nc3ccccc3c3occc23)cc1
Response: f

Request: Test call for this compound, please: COC(=O)[C@H](Cc1ccccc1)NC(=O)[C@@H](OC)[C@@H]1Cc2cc3cc(OC4CC(OC5CC(O)C(O)C(C)O5)C(O)C(C)O4)c(C)c(O)c3c(O)c2C(=O)[C@H]1OC1CC(OC2CC(OC3CC(C)(O)C(O)C(C)O3)C(O)C(C)O2)C(O)C(C)O1 (stereo partly drawn)
Response: t

Request: Test call, this compound: O=C1C(=O)c2c(nc3ncccn23)-c2ccccc21
Response: t

Request: Please let me know the test result on file for C=C(C(=O)OC)[C@@H]1C[C@@H](O)[C@]2(C)CC/C=C(\C)CCC[C@H](C)[C@H](O)C1O2 .
Response: f

Request: Recorded call for Cc1ccccc1NC(=O)c1sc2nc3c(cc2c1N)C(=O)CCC3 ?
Response: f
